Provenance of the data: patent US20260151499A1

- EXPERIMENTAL_TARGET: T1, CD73 protein (UniProt P21589 27-549)
- T1 construct: also called CD73-biotin
- T1 sequence (looked up): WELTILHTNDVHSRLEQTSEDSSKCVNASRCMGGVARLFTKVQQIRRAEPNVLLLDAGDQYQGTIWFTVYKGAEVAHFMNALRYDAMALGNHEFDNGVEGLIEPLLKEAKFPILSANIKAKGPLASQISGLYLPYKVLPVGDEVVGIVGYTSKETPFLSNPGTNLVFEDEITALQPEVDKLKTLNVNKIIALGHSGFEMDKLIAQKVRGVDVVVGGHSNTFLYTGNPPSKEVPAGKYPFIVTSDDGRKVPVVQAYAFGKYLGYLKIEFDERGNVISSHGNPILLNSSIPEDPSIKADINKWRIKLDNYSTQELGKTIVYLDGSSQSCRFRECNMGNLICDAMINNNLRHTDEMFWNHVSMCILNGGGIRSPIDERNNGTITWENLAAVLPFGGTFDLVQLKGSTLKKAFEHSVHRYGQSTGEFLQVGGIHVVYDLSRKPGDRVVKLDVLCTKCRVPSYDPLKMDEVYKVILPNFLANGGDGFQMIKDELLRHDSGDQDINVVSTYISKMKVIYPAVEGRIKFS
- PROCEDURE_DETAILS: Octet BLI; Ab-BN3 on protein A sensors, CD73 in solution
PROPERTY: kon
Report as: number unit

10D8-BN3 (antibody, V domains shown, position marked * in QQ*YTTPPT (light chain residue 91): unnatural amino acid (UAA) with azide, conjugated to BN3 (PSB12379-PEG3-DBCO), also called 10D8 Ab-BN3) VH: EVQLVESGGGLVQPGGSLRLSCAASGFTFSTYAIHWVRQAPGKGLEWVSSISGSGGGGGTYYADSVKGRFTISADTSKNTAYLQMNSLRAEDTAVYYCARDRGFLQFDYWGQGTLVTVSS VL: DIQMTQSPSSLSASVGDRVTITCRASQSISSWLAWYQQKPGKAPKLLIYDVSNVQTGVPSRFSGSRSGTDFTLTISSLQPEDFATYYCQQXYTTPPTFGQGTKLEI | 204000 M⁻¹ s⁻¹

Input line: Bench note: what kon did ABN3-2G-BN3 (antibody, V domains shown, not fully specified; position marked * in QQ*YTTPPT (light chain residue 91): unnatural amino acid (UAA) with azide, conjugated to BN3 (PSB12379-PEG3-DBCO), also called ABN3-2G Ab-BN3) VH: EVQLVESGGGLVQPGGSLRLSCAASGITFGSYTMSWVRQAPGKGLEWIGTVHYTGKTFYSPSLKSRVTISADTSKNTAYLQMNSLRAEDTAVYYCARGRDFGEPPYVRAFDIWGQGTLVTVSS VL: DIQMTQSPSSLSASVGDRVTITCQASHDISKYLNWYQQKPGKAPKLLIYDASNLETGVPSRFSGSRSGTDFTLTISSLQPEDFATYYCQQXYTTPPTFGQGTKLEI show?
Output line: 305000 M⁻¹ s⁻¹

Input line: Bench note: what kon did 10A7-BN3 (antibody, V domains shown, position marked * in QQ*YTTPPT (light chain residue 91): unnatural amino acid (UAA) with azide, conjugated to BN3 (PSB12379-PEG3-DBCO), also called 10A7 Ab-BN3) VH: EVQLVESGGGLVQPGGSLRLSCAASGFAFSSYSMSWVRQAPGKGLEWIGSIYYSGSTYYNPSLKSRVTISADTSKNTAYLQMNSLRAEDTAVYYCARNSGFETLDYWGQGTLVTVSS VL: DIQMTQSPSSLSASVGDRVTITCRASQGISRWLAWYQQKPGKAPNLLIYGASTLQSGVPPRFSGSRSGTDFTLTISSLQPEDFATYYCQQXYTTPPTFGQGTKLEI show?
Output line: 215000 M⁻¹ s⁻¹
